# target.of.assay: Aryl hydrocarbon receptor (Homo sapiens)
# assay.text: ATG_Ahr_CIS: Attagene CIS-FACTORIAL HepG2 Assay for human Aryl Hydrocarbon Receptor (Ahr) (AID 2282930)
# condition.label: HepG2 AhR cis-factorial reporter transcription; actives raise or lower the signal
The source made the active and inactive calls. The calls were made as follows: active = hit-call score of the fitted dose curve at least 0.9, where 1 is the maximum; inactive = score below 0.9.
property: AC50

Record excerpt, results attached:
compound	AC50
O=C(N[C@@H](Cc1ccccc1)[C@@H](O)C(=O)N1C[C@@H](O)[C@@H](O)C1)c1cc2cc(Cl)ccc2[nH]1	inactive
FC(F)(F)C(F)(F)C(F)(F)C(F)(F)C(F)(F)C(F)(F)CCI	32.1 µM (active)
COc1cc(S(=O)(=O)O)c(C)cc1N=Nc1c(O)ccc2cc(S(=O)(=O)O)ccc12	inactive
CCOC(=O)CCC(=O)OCC	75.7 µM (active)
O=C(OCCCCCOC(=O)c1ccccc1)c1ccccc1	inactive

# lookup: `O=C(O)Cc1ccccc1Nc1c(Cl)cccc1Cl` on Aryl hydrocarbon receptor (Homo sapiens), AC50 = 67.3 µM (active)

# value of AC50, Aryl hydrocarbon receptor (Homo sapiens), item `O=c1[nH]cc(F)c(=O)[nH]1` = inactive

Fill in: Aryl hydrocarbon receptor (Homo sapiens) AC50 for `CCCCCCOCCO` = inactive

// returns AC50 for `COc1cc(C=O)ccc1O` with Aryl hydrocarbon receptor (Homo sapiens); value = 80.8 µM (active)

Here `Cc1cccc(C)c1O` was tested on Aryl hydrocarbon receptor (Homo sapiens), and its AC50 came to inactive

Entry COCCOC[C@H](CC1(C(=O)NC2CCC(C(=O)O)CC2)CCCC1)C(=O)Oc1ccc2c(c1)CCC2 (some centres not stated) under Aryl hydrocarbon receptor (Homo sapiens) had AC50 of inactive

###

# target.of.assay: chimpanzee Androgen Receptor (AR), AR (gene 747460)
# assay.text: NVS_NR_cAR: NovaScreen (NVS) Nuclear Receptor Binding Assay for chimpanzee Androgen Receptor (AR) (AID 2283346);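 also: radioligand displacement from AR measured by scintillation counting in a cell-free assay; a loss of bound radioligand signal versus DMSO counts as binding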
Results filed as inconclusive are left out. Calls of active or inactive are those of the source. How the source made its calls: active means hit-call score of the fitted dose curve at least 0.9, where 1 is the maximum; inconclusive means response in the unintended direction; inactive means score below 0.9.
Please reply with one of these outcomes: active, inactive

Reference set, count: 6
compound	classification
C=CCOC(=O)c1ccccc1C(=O)OCC=C	active
Nc1ccc2c(c1)C(=O)c1ccccc1C2=O	active
CCNc1cccc(C)c1	inactive
CNCc1cc(F)ccc1Oc1ccc(Cl)c(Cl)c1	active
C=CCc1ccc(O)c(OC)c1	active
Cc1nc(-c2ccc3c(c2)CCN(CCC2CCC(NC(=O)/C=C/c4ccc(F)cc4)CC2)CC3)no1 (stereo not drawn)	inactive

Called result for `C[C@]12C=CC(=O)C=C1CC[C@@H]1[C@@H]2C(=O)C[C@@]2(C)[C@H]1CC[C@]2(O)C(=O)CO`
active

Record lookup: outcome of this test for CCCCC(CC)COC(=O)CC(C(=O)OCC(CC)CCCC)S(=O)(=O)O (stereo not drawn) ?
active

###

# target.of.assay: Estrogen receptor (Homo sapiens) (UniProt P03372)
# Sequence (P03372 whole entry, looked up, the tested form may be a part): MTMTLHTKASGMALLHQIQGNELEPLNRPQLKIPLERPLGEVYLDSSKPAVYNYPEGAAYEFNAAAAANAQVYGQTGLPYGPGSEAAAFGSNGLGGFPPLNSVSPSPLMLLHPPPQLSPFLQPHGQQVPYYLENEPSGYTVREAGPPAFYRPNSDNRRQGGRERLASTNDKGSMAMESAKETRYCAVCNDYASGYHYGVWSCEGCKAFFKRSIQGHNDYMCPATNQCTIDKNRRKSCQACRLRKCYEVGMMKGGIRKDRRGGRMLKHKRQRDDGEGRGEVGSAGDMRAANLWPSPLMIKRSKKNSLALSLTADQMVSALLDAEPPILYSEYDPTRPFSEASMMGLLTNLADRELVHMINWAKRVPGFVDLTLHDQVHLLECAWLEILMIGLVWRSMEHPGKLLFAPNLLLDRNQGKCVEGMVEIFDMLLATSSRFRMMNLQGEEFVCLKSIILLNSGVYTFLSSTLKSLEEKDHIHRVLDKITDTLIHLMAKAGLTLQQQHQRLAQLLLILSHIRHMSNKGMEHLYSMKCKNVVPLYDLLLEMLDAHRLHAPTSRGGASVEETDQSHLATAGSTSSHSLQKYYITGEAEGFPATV
# assay.text: OT_ER_ERaERa_0480: Odyssey Thera (OT) 8-hour HEK293T Protein-Complementation Assay for Estrogen Receptor-alpha/-alpha Homodimer (AID 2283351);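 also: rise in fluorescence from reassembled reporter fragments on ERα LBD homodimer in nucleus or whole cell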
Results filed as inconclusive are left out. Active and inactive are the calls of the source. Rule for the calls: active = hit-call score of the fitted dose curve at least 0.9, where 1 is the maximum; inconclusive = response in the unintended direction; inactive = score below 0.9.
// one of true (1) for active, false (0) for inactive, no free text

smiles.entry	classification
CCc1c(C(=O)NN2CCCCC2)nn(-c2ccc(Cl)cc2Cl)c1-c1ccc(Br)cc1	false (0)
CC=Cc1ccc(O)c(OC)c1	true (1)

// outcome(item) with item = `Oc1ccc2c(c1)OC[C@@H](N1CCC(O)(c3ccc(F)cc3)CC1)[C@H]2O`
false (0)

Record request — test call for `CC1=C(/C=C/C(C)=C/C=C/C(C)=C/CO)C(C)(C)CCC1`
false (0)

Please share the test call associated with `C=CCc1ccc(O)c(OC)c1` .
false (0)

// outcome(item) with item = `CCCCCCCCCCC`
false (0)

Which result was noted for this compound in the test: `O=C(OCCCCCOC(=O)c1ccccc1)c1ccccc1`
false (0)

###

# target.of.assay: Heat shock factor protein 1 (Homo sapiens) (UniProt Q00613)
# Sequence (Q00613 whole entry, looked up): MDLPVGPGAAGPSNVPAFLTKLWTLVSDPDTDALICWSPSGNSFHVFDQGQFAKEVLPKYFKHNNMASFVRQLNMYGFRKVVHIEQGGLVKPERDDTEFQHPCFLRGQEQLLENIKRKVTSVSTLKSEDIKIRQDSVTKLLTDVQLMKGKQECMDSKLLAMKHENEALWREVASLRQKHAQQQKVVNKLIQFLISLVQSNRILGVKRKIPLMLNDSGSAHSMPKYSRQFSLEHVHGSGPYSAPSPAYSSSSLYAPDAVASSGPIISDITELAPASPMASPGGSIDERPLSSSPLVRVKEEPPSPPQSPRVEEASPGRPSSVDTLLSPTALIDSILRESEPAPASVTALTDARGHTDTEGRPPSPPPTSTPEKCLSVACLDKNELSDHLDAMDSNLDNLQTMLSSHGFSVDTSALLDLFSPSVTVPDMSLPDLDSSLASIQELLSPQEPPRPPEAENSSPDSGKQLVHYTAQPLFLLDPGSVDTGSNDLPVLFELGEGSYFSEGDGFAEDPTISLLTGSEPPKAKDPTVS
# assay.text: ATG_HSE_CIS: Attagene CIS-FACTORIAL HepG2 Assay for human Heat Shock Transcription Factor 1 (HSE) (AID 2282953)
# condition.label: HepG2 HSE cis-reporter, Attagene RNA transcription; actives raise or lower the signal
Active and inactive are the calls of the source. How the source made its calls: active means hit-call score of the fitted dose curve at least 0.9, where 1 is the maximum; inactive means score below 0.9.
Pick from 1 (yes) (active), 0 (no) (inactive) when you respond.

Please review the entries below; each comes with its answer.
compound	classification
OC[C@@H](O)[C@@H](O)[C@H](O)[C@H](O)CO	0 (no)
Cc1cc(NC(=O)C(=O)O)cc(C)c1Oc1ccc(O)c2c1CCC2	0 (no)
C=CCOC(=O)c1ccccc1C(=O)OCC=C	0 (no)

Each compound tested received a call. Report the one for `CCCCc1ccc2c(n1)[C@@H](c1ccc(OC)cc1C[C@H](C)C(=O)O)[C@H](C(=O)O)[C@H]2c1ccc2c(c1)OCO2` .
0 (no)

Field: outcome | Entry: `O=C(O)Cc1ccccc1Nc1c(Cl)cccc1Cl`
0 (no)

Field: outcome | Entry: `Cc1ccc(Cl)cc1`
0 (no)

###

# assay.text: CEETOX_H295R_CORTIC: CeeTox H295R High-throughput Steroidogenesis Assay for Corticosterone (CORTIC) (AID 2283437);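 also: corticosterone secreted into medium quantified by mass spectrometry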;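 as to AC50: human H295R adrenal cells prestimulated with forskolin before chemical exposure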
# condition.label: actives raise or lower the signal
Calls of active or inactive are those of the source. How the source made its calls: active means hit-call score of the fitted dose curve at least 0.9, where 1 is the maximum; inactive means score below 0.9.

smiles.entry	AC50
Nc1ccc2c(c1)C(=O)c1ccccc1C2=O	4.17 µM (active)
COc1ccc2c(c1)c(CC(=O)O)c(C)n2C(=O)c1ccc(Cl)cc1	inactive
Cc1cc(NC(=O)C(=O)O)cc(C)c1Oc1ccc(O)c2c1CCC2	34.1 µM (active)
c1cc(-c2ccncc2)ccn1	inactive

###

# Read-out: Glutathione S-transferase M3 (GSTM3), GSTM3 (gene 2947)
# assay.text: LTEA_HepaRG_GSTM3: Life Technologies and Expression Analysis (LTEA) Assay for Glutathione S-transferase M3 (GSTM3) using HepaRG (AID 2283501)
# condition.label: mRNA level, 48 h; actives raise or lower the signal
Calls of active or inactive are those of the source. The calls were made as follows: active = hit-call score of the fitted dose curve at least 0.9, where 1 is the maximum; inactive = score below 0.9.
Choose the fitting class; nothing outside active, inactive is accepted.

Consider the worked cases shown below.
smiles.entry	classification
CC1=C(/C=C/C(C)=C/C=C/C(C)=C/CO)C(C)(C)CCC1	inactive
COc1ccc2c(c1)c(CC(=O)O)c(C)n2C(=O)c1ccc(Cl)cc1	inactive
CC1(C)NC(=O)NC1=O	inactive
CCCCN(CCCC)CCCC	inactive

For this compound, state the assay outcome: `O=C(OCCCCCOC(=O)c1ccccc1)c1ccccc1`
active

# outcome recorded in this test, key = `COCCOCCOC`
active

Outcome logged for `NCC1(Cc2noc(=O)[nH]2)CCCCC1` in this assay:
inactive

###

# Read-out: Bcl-2 (BAX) gene, BAX (gene 581)
# assay.text: LTEA_HepaRG_BAX: Life Technologies and Expression Analysis (LTEA) Assay for Bcl-2 (BAX) gene using HepaRG (AID 2283470)
# condition.label: mRNA level, 48 h; actives raise or lower the signal
Activity calls are given as the source filed them. Rule for the calls: active = hit-call score of the fitted dose curve at least 0.9, where 1 is the maximum; inactive = score below 0.9.
Would you mind answering with one of these outcomes? 1.0 = active, 0.0 = inactive

# example entries with known answers
smiles.entry	classification
O=C(O)CCCCC(=O)O	0.0
NCCO	0.0
Nc1ccc2c(c1)C(=O)c1ccccc1C2=O	1.0
COc1cc(-c2nc(NC(=O)c3cc4cc(C)cc(C)c4n3CC(=O)O)sc2CCC2CCCCC2)c(OC)cc1Cl	0.0
CCCc1cc(=O)[nH]c(=S)[nH]1	0.0
CCCCCCCC=O	0.0

Could you now consider this next molecule?
How was `CC(=O)OCCOCCOCCOC(C)=O` classified in this test?
0.0

###

# target.of.assay: human CYP2B6, CYP2B6 (gene 1555) (UniProt P20813)
# Sequence (P20813 whole entry, looked up): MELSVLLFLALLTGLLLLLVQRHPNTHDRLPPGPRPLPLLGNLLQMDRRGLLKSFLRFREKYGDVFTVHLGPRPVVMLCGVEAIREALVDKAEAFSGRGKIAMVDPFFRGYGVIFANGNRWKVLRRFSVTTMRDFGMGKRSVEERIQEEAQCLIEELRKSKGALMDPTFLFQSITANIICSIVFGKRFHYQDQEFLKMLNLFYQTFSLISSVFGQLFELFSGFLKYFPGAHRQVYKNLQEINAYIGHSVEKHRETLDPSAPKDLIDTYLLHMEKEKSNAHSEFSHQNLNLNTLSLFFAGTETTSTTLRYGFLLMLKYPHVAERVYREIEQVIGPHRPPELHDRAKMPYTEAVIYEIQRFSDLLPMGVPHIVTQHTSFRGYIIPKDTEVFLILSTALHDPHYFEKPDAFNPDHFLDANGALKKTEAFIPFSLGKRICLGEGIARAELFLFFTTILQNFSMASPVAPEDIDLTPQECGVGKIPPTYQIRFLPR
# assay.text: NVS_ADME_hCYP2B6: NovaScreen (NVS) CYP450-related Enzyme Activity (ADME) Assay for human CYP2B6 (AID 2283101)
Inconclusive results are not listed. Activity calls are given as the source filed them. How the source made its calls: active means hit-call score of the fitted dose curve at least 0.9, where 1 is the maximum; inconclusive means response in the unintended direction; inactive means score below 0.9.
Please answer using one outcome listed in TRUE for active, FALSE for inactive

Known results for compounds:
smiles.entry	classification
Nc1ccc2c(c1)C(=O)c1ccccc1C2=O	FALSE
CCOc1ccc2c(c1)C(C)=CC(C)(C)N2	TRUE
CC=Cc1ccc(O)c(OC)c1	FALSE

Please look at the following compound next.
Look up the recorded call for `Oc1ccc2c(c1)OC[C@@H](N1CCC(O)(c3ccc(F)cc3)CC1)[C@H]2O` in this test.
TRUE

###

# Read-out: ABC Transporter (ABCC2), ABCC2 (gene 1244)
# assay.text: LTEA_HepaRG_ABCC2: Life Technologies and Expression Analysis (LTEA) Assay for ABC Transporter (ABCC2) using HepaRG (AID 2283464)
# condition.label: mRNA level, 48 h; actives raise or lower the signal
Active and inactive are the calls of the source. The calls were made as follows: active = hit-call score of the fitted dose curve at least 0.9, where 1 is the maximum; inactive = score below 0.9.
Return exactly one item of class 1 for active, class 0 for inactive

Example results:
smiles.entry	classification
Cc1ccc(C)c(C)c1	class 0
FC(F)(F)C(F)(F)C(F)(F)C(F)(F)C(F)(F)C(F)(F)CCI	class 0
CCCCCCCCCCCC(=O)OC	class 0
COc1cc(S(=O)(=O)O)c(C)cc1N=Nc1c(O)ccc2cc(S(=O)(=O)O)ccc12	class 0
Nc1ccccc1N	class 1
CC(=O)OCCOCCOCCOC(C)=O	class 0

In this assay, the call recorded for `C[Si]1(C)O[Si](C)(C)O[Si](C)(C)O[Si](C)(C)O1` was what?
class 0

Record lookup: outcome of this test for `CN[C@H]1CC[C@@H](c2ccc(Cl)c(Cl)c2)c2ccc(S(N)(=O)=O)cc21` ?
class 1

Hi, sorry to bother you, what did the test record for `O=c1[nH]cc(F)c(=O)[nH]1` ?
class 0

Look up the recorded call for `Cc1ccc(N(C)C)cc1` in this test.
class 0

Fill in: this test's call for `Cc1cccc(Nc2cc(Cl)nc(SCC(=O)O)n2)c1C` is ___
class 1

Dear colleague, could you share the recorded outcome for `CCCCCC(=O)O` when you have a moment?
class 0

Hi team, can someone confirm the assay call for `Cc1c(C(=O)O)c(O)cc2c1C(=O)c1c(O)c([C@@H]3O[C@H](CO)[C@@H](O)[C@H](O)[C@H]3O)c(O)c(O)c1C2=O` ?
class 0

Outcome? `CC(=O)Oc1ccccc1C(=O)O`
class 0
